Listed compounds paired with reported viability, T/C
Tested on: 349418-098-R-PDC complex spheroid growth
TEST_NAME: Anticancer human tumor 349418-098-R-PDC patient-derived lung adenocarcinoma cell line growth inhibition [AhR]
TEST_PARAMETERS: second compound 3.16 µM; first compound 10 µM; stronger effect = lower value

COMPOUND: COc1cc(Nc2ncc3c(n2)-c2ccc(Cl)cc2C(c2c(F)cccc2OC)=NC3)ccc1C(=O)O + CC(CO)NC(=O)c1cc(-c2ccc(Cl)cc2)nn(-c2cnn(C)c2)c1=O
QUANTITY_UNIT: %
viability, T/C: 29.7
//
COMPOUND: CC1(C)CCC(CN2CCN(c3ccc(C(=O)NS(=O)(=O)c4ccc(NCC5CCOCC5)c([N+](=O)[O-])c4)c(Oc4cnc5[nH]ccc5c4)c3)CC2)=C(c2ccc(Cl)cc2)C1 + Cc1ccccc1N=Nc1ccc(NC(=O)c2ccnn2C)c(C)c1
QUANTITY_UNIT: %
viability, T/C: 26
//
COMPOUND: CC1COCCN1c1cc(C2(S(C)(=N)=O)CC2)nc(-c2ccnc3[nH]ccc23)n1 (stereo not drawn) + Cc1ccccc1N=Nc1ccc(NC(=O)c2ccnn2C)c(C)c1
QUANTITY_UNIT: %
viability, T/C: 15.3

====

System: 349418-098-R-PDC complex spheroid growth
TEST_NAME: Anticancer human tumor 349418-098-R-PDC cell line growth inhibition [AhR];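 note: spheroids exposed to agents for seven days before luminescence viability read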
TEST_PARAMETERS: curve of first compound; second compound 0.316 µM
pIC50: −log10 of the molar value.

COMPOUND: Cn1ncnc1C1c2n[nH]c(=O)c3cc(F)cc(c23)NC1c1ccc(F)cc1 (stereo unspecified) + CC(CO)NC(=O)c1cc(-c2ccc(Cl)cc2)nn(-c2cnn(C)c2)c1=O
MEASURED_ON: 349418-098-R-PDC complex spheroid growth
pIC50: < 7.00
//
COMPOUND: CC(C)c1c(-c2ccccc2)nc2c(C#N)c[nH]n2c1=O + Cc1cncc(-c2nc(NCCc3c[nH]c4ccccc34)c3ncn(C(C)C)c3n2)c1
MEASURED_ON: 349418-098-R-PDC complex spheroid growth
pIC50: < 5.00
//
COMPOUND: O=C(c1cc(Cc2n[nH]c(=O)c3ccccc23)ccc1F)N1CCN(C(=O)C2CC2)CC1 + Cc1cncc(-c2nc(NCCc3c[nH]c4ccccc34)c3ncn(C(C)C)c3n2)c1
MEASURED_ON: 349418-098-R-PDC complex spheroid growth
pIC50: < 5.00
//
COMPOUND: Nc1ccn(C2OC(CO)C(O)C2(F)F)c(=O)n1 (stereo unspecified) + Cc1cncc(-c2nc(NCCc3c[nH]c4ccccc34)c3ncn(C(C)C)c3n2)c1
MEASURED_ON: 349418-098-R-PDC complex spheroid growth
pIC50: > 7.50
//
COMPOUND: CCc1c2c(nc3ccc(O)cc13)-c1cc3c(c(=O)n1C2)COC(=O)[C@]3(O)CC + CC(CO)NC(=O)c1cc(-c2ccc(Cl)cc2)nn(-c2cnn(C)c2)c1=O
MEASURED_ON: 349418-098-R-PDC complex spheroid growth
pIC50: > 9.02
//
COMPOUND: CCc1c2c(nc3ccc(O)cc13)-c1cc3c(c(=O)n1C2)COC(=O)[C@]3(O)CC + Cc1cncc(-c2nc(NCCc3c[nH]c4ccccc34)c3ncn(C(C)C)c3n2)c1
MEASURED_ON: 349418-098-R-PDC complex spheroid growth
pIC50: > 9.02

====

Listed compounds paired with reported viability, T/C
Tested on: 349418-098-R-PDC complex spheroid growth
TEST_NAME: Anticancer human tumor 349418-098-R-PDC cell line growth inhibition [AhR];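 note: spheroids exposed to agents for seven days before luminescence viability read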;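 for viability, T/C: spheroids also contain HUVEC endothelial cells and human MSC stroma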
TEST_PARAMETERS: second compound 0.1 µM; first compound 0.003 µM; stronger effect = lower value
MEASURED_ATTRIBUTE: viability, T/C

COMPOUND: Nc1ncn(C2CC(O)C(CO)S2)c(=O)n1 (centres undefined) + Cc1ccccc1N=Nc1ccc(NC(=O)c2ccnn2C)c(C)c1
VALUE_OBSERVED: 87.8%
//
COMPOUND: Nc1ncn(C2CC(O)C(CO)S2)c(=O)n1 (centres undefined) + CC(CO)NC(=O)c1cc(-c2ccc(Cl)cc2)nn(-c2cnn(C)c2)c1=O
VALUE_OBSERVED: 85.5%
//
COMPOUND: Nc1ncn(C2CC(O)C(CO)S2)c(=O)n1 (centres undefined) + Cc1cncc(-c2nc(NCCc3c[nH]c4ccccc34)c3ncn(C(C)C)c3n2)c1
VALUE_OBSERVED: 96.7%
//
COMPOUND: CCc1c2c(nc3ccc(O)cc13)-c1cc3c(c(=O)n1C2)COC(=O)[C@]3(O)CC + CC(CO)NC(=O)c1cc(-c2ccc(Cl)cc2)nn(-c2cnn(C)c2)c1=O
VALUE_OBSERVED: 37.1%

====

Listed compounds paired with reported viability, T/C
System: 349418-098-R-PDC complex spheroid growth
TEST_NAME: Anticancer human tumor 349418-098-R-PDC cell line growth inhibition [AhR];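 note: spheroids exposed to agents for seven days before luminescence viability read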;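 for viability, T/C: spheroids also contain HUVEC endothelial cells and human MSC stroma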
TEST_PARAMETERS: second compound 10 µM; first compound 0.01 µM; stronger effect = lower value
Description: Multicellular complex tumor spheroid response to aryl hydrocarbon receptor antagonists in combination with a variety of drugs and investigational agents in selected tumor cell lines […] Compounds. […] If the clinical Cmax for an agent had not been determined, the highest concentration tested was 10 microM (Table 1). […]
MEASURED_ATTRIBUTE: viability, T/C (%)

COMPOUND: Nc1ncn(C2CC(O)C(CO)O2)c(=O)n1 (configuration not stated) + CC(CO)NC(=O)c1cc(-c2ccc(Cl)cc2)nn(-c2cnn(C)c2)c1=O
MEASURED_ON: 349418-098-R-PDC complex spheroid growth
VALUE_OBSERVED: 63.9
//
COMPOUND: Nc1ncn(C2CC(O)C(CO)O2)c(=O)n1 (configuration not stated) + Cc1cncc(-c2nc(NCCc3c[nH]c4ccccc34)c3ncn(C(C)C)c3n2)c1
MEASURED_ON: 349418-098-R-PDC complex spheroid growth
VALUE_OBSERVED: 1.55
//
COMPOUND: Cn1ncnc1C1c2n[nH]c(=O)c3cc(F)cc(c23)NC1c1ccc(F)cc1 (configuration not stated) + Cc1cncc(-c2nc(NCCc3c[nH]c4ccccc34)c3ncn(C(C)C)c3n2)c1
MEASURED_ON: 349418-098-R-PDC complex spheroid growth
VALUE_OBSERVED: 2.42
//
COMPOUND: CC1COCCN1c1cc(-c2ccnn2C)c2ccnc(-c3ccn[nH]3)c2n1 (configuration not stated) + Cc1ccccc1N=Nc1ccc(NC(=O)c2ccnn2C)c(C)c1
MEASURED_ON: 349418-098-R-PDC complex spheroid growth
VALUE_OBSERVED: 61.9
//
COMPOUND: CC1COCCN1c1cc(-c2ccnn2C)c2ccnc(-c3ccn[nH]3)c2n1 (configuration not stated) + Cc1cncc(-c2nc(NCCc3c[nH]c4ccccc34)c3ncn(C(C)C)c3n2)c1
MEASURED_ON: 349418-098-R-PDC complex spheroid growth
VALUE_OBSERVED: 0.66
//
COMPOUND: Nc1ncn(C2CC(O)C(CO)O2)c(=O)n1 (configuration not stated) + Cc1ccccc1N=Nc1ccc(NC(=O)c2ccnn2C)c(C)c1
MEASURED_ON: 349418-098-R-PDC complex spheroid growth
VALUE_OBSERVED: 61.4
//
COMPOUND: CC[C@@]1(O)C(=O)OCc2c1cc1n(c2=O)Cc2cc3c(CN(C)C)c(O)ccc3nc2-1 + CC(CO)NC(=O)c1cc(-c2ccc(Cl)cc2)nn(-c2cnn(C)c2)c1=O
MEASURED_ON: 349418-098-R-PDC complex spheroid growth
VALUE_OBSERVED: 35

====

Tested on: 349418-098-R-PDC complex spheroid growth
TEST_NAME: Anticancer human tumor 349418-098-R-PDC cell line growth inhibition [AhR];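 note: spheroids exposed to agents for seven days before luminescence viability read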;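 for viability, T/C: spheroids also contain HUVEC endothelial cells and human MSC stroma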
TEST_PARAMETERS: second compound 10 µM; first compound 3.16 µM; stronger effect = lower value
Binning rule for recorded viability, T/C: lowest (below 3%), middle (3% to below 30%), highest (30% or more)

MOLECULE: O=C(c1cc(Cc2n[nH]c(=O)c3ccccc23)ccc1F)N1CCN(C(=O)C2CC2)CC1 + CC(CO)NC(=O)c1cc(-c2ccc(Cl)cc2)nn(-c2cnn(C)c2)c1=O
CLASS_ASSIGNMENT: highest

MOLECULE: Nc1ccn(C2OC(CO)C(O)C2(F)F)c(=O)n1 (centres undefined) + Cc1ccccc1N=Nc1ccc(NC(=O)c2ccnn2C)c(C)c1
CLASS_ASSIGNMENT: middle

MOLECULE: CC1COCCN1c1cc(C2(S(C)(=N)=O)CC2)nc(-c2ccnc3[nH]ccc23)n1 (centres undefined) + Cc1ccccc1N=Nc1ccc(NC(=O)c2ccnn2C)c(C)c1
CLASS_ASSIGNMENT: middle

MOLECULE: COc1cc(Nc2ncc3c(n2)-c2ccc(Cl)cc2C(c2c(F)cccc2OC)=NC3)ccc1C(=O)O + Cc1cncc(-c2nc(NCCc3c[nH]c4ccccc34)c3ncn(C(C)C)c3n2)c1
CLASS_ASSIGNMENT: lowest

MOLECULE: CC(C)c1c(-c2ccccc2)nc2c(C#N)c[nH]n2c1=O + CC(CO)NC(=O)c1cc(-c2ccc(Cl)cc2)nn(-c2cnn(C)c2)c1=O
CLASS_ASSIGNMENT: highest

MOLECULE: COc1cccc2c1C(=O)c1c(O)c3c(c(O)c1C2=O)CC(O)(C(=O)CO)CC3OC1CC(N)C(O)C(C)O1 (centres undefined) + Cc1cncc(-c2nc(NCCc3c[nH]c4ccccc34)c3ncn(C(C)C)c3n2)c1
CLASS_ASSIGNMENT: lowest

MOLECULE: CC1(C)CCC(CN2CCN(c3ccc(C(=O)NS(=O)(=O)c4ccc(NCC5CCOCC5)c([N+](=O)[O-])c4)c(Oc4cnc5[nH]ccc5c4)c3)CC2)=C(c2ccc(Cl)cc2)C1 + Cc1ccccc1N=Nc1ccc(NC(=O)c2ccnn2C)c(C)c1
CLASS_ASSIGNMENT: highest

MOLECULE: CC1(C)CCC(CN2CCN(c3ccc(C(=O)NS(=O)(=O)c4ccc(NCC5CCOCC5)c([N+](=O)[O-])c4)c(Oc4cnc5[nH]ccc5c4)c3)CC2)=C(c2ccc(Cl)cc2)C1 + Cc1cncc(-c2nc(NCCc3c[nH]c4ccccc34)c3ncn(C(C)C)c3n2)c1
CLASS_ASSIGNMENT: middle

MOLECULE: NS(=O)(=O)OCC1CC(n2ccc3c(NC4CCc5ccccc54)ncnc32)CC1O (centres undefined) + Cc1cncc(-c2nc(NCCc3c[nH]c4ccccc34)c3ncn(C(C)C)c3n2)c1
CLASS_ASSIGNMENT: lowest

MOLECULE: CC1COCCN1c1cc(C2(S(C)(=N)=O)CC2)nc(-c2ccnc3[nH]ccc23)n1 (centres undefined) + CC(CO)NC(=O)c1cc(-c2ccc(Cl)cc2)nn(-c2cnn(C)c2)c1=O
CLASS_ASSIGNMENT: middle

MOLECULE: COc1ccc([C@@H](O)c2cc(-c3ncnc4cc(N5CCOCC5)ccc34)c(F)cc2Cl)nn1 + Cc1ccccc1N=Nc1ccc(NC(=O)c2ccnn2C)c(C)c1
CLASS_ASSIGNMENT: middle

MOLECULE: CC1COCCN1c1cc(C2(S(C)(=N)=O)CC2)nc(-c2ccnc3[nH]ccc23)n1 (centres undefined) + Cc1cncc(-c2nc(NCCc3c[nH]c4ccccc34)c3ncn(C(C)C)c3n2)c1
CLASS_ASSIGNMENT: lowest

MOLECULE: O=C(c1cc(Cc2n[nH]c(=O)c3ccccc23)ccc1F)N1CCN(C(=O)C2CC2)CC1 + Cc1ccccc1N=Nc1ccc(NC(=O)c2ccnn2C)c(C)c1
CLASS_ASSIGNMENT: highest

MOLECULE: O=C(C=Cc1cccc(S(=O)(=O)Nc2ccccc2)c1)NO + CC(CO)NC(=O)c1cc(-c2ccc(Cl)cc2)nn(-c2cnn(C)c2)c1=O
CLASS_ASSIGNMENT: middle
